test: Example 18 cynomolgus monkey PK study (SC and IM); format: in vivo, cynomolgus monkeys; settings: male, cynomolgus monkey, plasma, intramuscular, 20 mg/kg equivalent of EFdA, IM 20 mg/kg equivalent of EFdA; Mean; 25 days; read-out: Example 18 plasma concentrations

Chem smiles: C#C[C@]1(COC(=O)CCCCCCCCC)O[C@@H](n2cnc3c(N)nc(F)nc32)C[C@@H]1OC(=O)CCCCCCCCC
Unit tag: ng/mL
concentration at 25 days: 0.151

----------
assay: Example 18 cynomolgus monkey PK study (SC and IM); assay type: in vivo, cynomolgus monkeys; details: male, cynomolgus monkey, plasma, intramuscular, 20 mg/kg equivalent of EFdA, IM 20 mg/kg equivalent of EFdA; Monkey 2001; 0.292 days; read-out: Example 18 plasma concentrations
Readout label: concentration at 0.292 days

Chem smiles: C#C[C@]1(COC(=O)CCCCCCCCC)O[C@@H](n2cnc3c(N)nc(F)nc32)C[C@@H]1OC(=O)CCCCCCCCC
Result: 0.0301 µg/mL

----------
assay: Example 18 cynomolgus monkey PK study (SC and IM); format: in vivo, cynomolgus monkeys; details: male, cynomolgus monkey, plasma, sc, 20 mg/kg, SC 20 mg/kg equivalent of EFdA; Mean; 0.021 days; read-out: Example 18 plasma concentrations
Readout label: concentration at 0.021 days (ng/mL)

Chem smiles: C#C[C@]1(COC(=O)CCCCCCCCC)O[C@@H](n2cnc3c(N)nc(F)nc32)C[C@@H]1OC(=O)CCCCCCCCC
Recorded number: 0.235

----------
Experiment: Example 18 cynomolgus monkey PK study (SC and IM)
Type: in vivo, cynomolgus monkeys
Details: male, cynomolgus monkey, plasma, intramuscular, 20 mg/kg equivalent of EFdA, IM 20 mg/kg equivalent of EFdA; Monkey 2001; 10 days; read-out: Example 18 plasma concentrations
Text: Example 18 referenced herein was made in accordance with Synthesis B. Six male cynomolgus monkeys (+1 spare) were selected from the Testing Facility's colony of non-naïve animals. The animals were assigned to the study based on acceptable health as determined by a Testing Facility veterinarian. Six animals were selected and placed into two groups of three animals each. Fasting of the animals before or after dosing was not required. […]

Compound: C#C[C@]1(COC(=O)CCCCCCCCC)O[C@@H](n2cnc3c(N)nc(F)nc32)C[C@@H]1OC(=O)CCCCCCCCC [Example 18]
concentration at 10 days: 0.156 ng/mL

----------
experiment: Example 18 cynomolgus monkey PK study (SC and IM); format: in vivo, cynomolgus monkeys; conditions: male, cynomolgus monkey, plasma, intramuscular, 20 mg/kg equivalent of EFdA, IM 20 mg/kg equivalent of EFdA; Monkey 2003; 1 days; read-out: Example 18 plasma concentrations
Readout label: concentration at 1 days (ng/mL)

Chem smiles: C#C[C@]1(COC(=O)CCCCCCCCC)O[C@@H](n2cnc3c(N)nc(F)nc32)C[C@@H]1OC(=O)CCCCCCCCC
Readout label: concentration at 1 days
Recorded number: 2.08

----------
test: Example 18 cynomolgus monkey PK study (SC and IM); format: in vivo, cynomolgus monkeys; conditions: male, cynomolgus monkey, plasma, intramuscular, 20 mg/kg equivalent of EFdA, IM 20 mg/kg equivalent of EFdA; Monkey 2003; 0.125 days; read-out: Example 18 plasma concentrations

Compound: C#C[C@]1(COC(=O)CCCCCCCCC)O[C@@H](n2cnc3c(N)nc(F)nc32)C[C@@H]1OC(=O)CCCCCCCCC [Example 18]
concentration at 0.125 days / ng/mL: 3.31

----------
Experiment: Example 18 cynomolgus monkey PK study (SC and IM)
Format: in vivo, cynomolgus monkeys
Settings: male, cynomolgus monkey, plasma, sc, 20 mg/kg, SC 20 mg/kg equivalent of EFdA; Monkey 1002; 0.125 days; read-out: Example 18 plasma concentrations
Source text: Example 18 referenced herein was made in accordance with Synthesis B. Six male cynomolgus monkeys (+1 spare) were selected from the Testing Facility's colony of non-naïve animals. The animals were assigned to the study based on acceptable health as determined by a Testing Facility veterinarian. Six animals were selected and placed into two groups of three animals each. Fasting of the animals before or after dosing was not required. […]
Readout label: concentration at 0.125 days (ng/mL)

Compound: C#C[C@]1(COC(=O)CCCCCCCCC)O[C@@H](n2cnc3c(N)nc(F)nc32)C[C@@H]1OC(=O)CCCCCCCCC [Example 18]
Readout label: concentration at 0.125 days
Recorded number: 5.59

----------
assay: Example 18 cynomolgus monkey PK study (SC and IM); assay type: in vivo, cynomolgus monkeys; conditions: male, cynomolgus monkey, plasma, sc, 20 mg/kg, SC 20 mg/kg equivalent of EFdA; Mean; 10 days; read-out: Example 18 plasma concentrations

Compound: C#C[C@]1(COC(=O)CCCCCCCCC)O[C@@H](n2cnc3c(N)nc(F)nc32)C[C@@H]1OC(=O)CCCCCCCCC [Example 18]
Unit tag: ng/mL
concentration at 10 days: 129

----------
assay: Example 18 cynomolgus monkey PK study (SC and IM); assay type: in vivo, cynomolgus monkeys; details: male, cynomolgus monkey, plasma, sc, 20 mg/kg, SC 20 mg/kg equivalent of EFdA; Monkey 1002 (column 3); 0.125 days; read-out: Example 18 plasma concentrations
Readout label: concentration at 0.125 days

Chem smiles: C#C[C@]1(COC(=O)CCCCCCCCC)O[C@@H](n2cnc3c(N)nc(F)nc32)C[C@@H]1OC(=O)CCCCCCCCC
Readout label: concentration at 0.125 days
Result: 2.29 ng/mL

----------
experiment: Example 18 cynomolgus monkey PK study (SC and IM); format: in vivo, cynomolgus monkeys; settings: male, cynomolgus monkey, plasma, intramuscular, 20 mg/kg equivalent of EFdA, IM 20 mg/kg equivalent of EFdA; Monkey 2003; 0.021 days; read-out: Example 18 plasma concentrations

Compound: C#C[C@]1(COC(=O)CCCCCCCCC)O[C@@H](n2cnc3c(N)nc(F)nc32)C[C@@H]1OC(=O)CCCCCCCCC [Example 18]
Unit tag: ng/mL
concentration at 0.021 days: 1.93

----------
assay: Example 18 cynomolgus monkey PK study (SC and IM); format: in vivo, cynomolgus monkeys; details: male, cynomolgus monkey, plasma, sc, 20 mg/kg, SC 20 mg/kg equivalent of EFdA; Mean; 3 days; read-out: Example 18 plasma concentrations

Compound: C#C[C@]1(COC(=O)CCCCCCCCC)O[C@@H](n2cnc3c(N)nc(F)nc32)C[C@@H]1OC(=O)CCCCCCCCC [Example 18]
Unit tag: ng/mL
concentration at 3 days: 0.312

----------
test: Example 18 cynomolgus monkey PK study (SC and IM); format: in vivo, cynomolgus monkeys; details: male, cynomolgus monkey, plasma, sc, 20 mg/kg, SC 20 mg/kg equivalent of EFdA; Monkey 1001; 0.125 days; read-out: Example 18 plasma concentrations

Molecule: C#C[C@]1(COC(=O)CCCCCCCCC)O[C@@H](n2cnc3c(N)nc(F)nc32)C[C@@H]1OC(=O)CCCCCCCCC [Example 18]
concentration at 0.125 days: 149 ng/mL

----------
test: Example 18 cynomolgus monkey PK study (SC and IM); format: in vivo, cynomolgus monkeys; conditions: male, cynomolgus monkey, plasma, sc, 20 mg/kg, SC 20 mg/kg equivalent of EFdA; Monkey 1001; 0.292 days; read-out: Example 18 plasma concentrations

Chem smiles: C#C[C@]1(COC(=O)CCCCCCCCC)O[C@@H](n2cnc3c(N)nc(F)nc32)C[C@@H]1OC(=O)CCCCCCCCC
concentration at 0.292 days (ng/mL): 146

----------
test: Example 18 cynomolgus monkey PK study (SC and IM); type: in vivo, cynomolgus monkeys; conditions: male, cynomolgus monkey, plasma, sc, 20 mg/kg, SC 20 mg/kg equivalent of EFdA; Mean; 2 days; read-out: Example 18 plasma concentrations

Compound: C#C[C@]1(COC(=O)CCCCCCCCC)O[C@@H](n2cnc3c(N)nc(F)nc32)C[C@@H]1OC(=O)CCCCCCCCC [Example 18]
concentration at 2 days [ng/mL]: 0.405

----------
test system: HIV pseudotyped virus (NL4-3 provirus, luciferase reporter), WT; test: PSV (pseudotyped virus) assay, WT; details: Human immunodeficiency virus 1, NL43, 72 h, read-out: WT IC50
pIC50: −log10 of the molar value.
Below: a set of entries, each annotated with reported pIC50.

Chem smiles: C#C[C@]1(COC(=O)C(CCC)CCC)O[C@@H](n2cnc3c(N)nc(F)nc32)C[C@@H]1OC(=O)CCC
pIC50: 6.48
//
Chem smiles: C#C[C@]1(COC(=O)c2ccccc2)O[C@@H](n2cnc3c(N)nc(F)nc32)C[C@@H]1O
pIC50: 8.52
//
Chem smiles: C#C[C@]1(COC(=O)CCCCCCCCC)O[C@@H](n2cnc3c(N)nc(F)nc32)C[C@@H]1OC(=O)OCC
pIC50: 7.11
//
Chem smiles: C#C[C@]1(COC(=O)CCCCCC)O[C@@H](n2cnc3c(N)nc(F)nc32)C[C@@H]1OC(=O)CCCCCC
pIC50: 8.10
//
Chem smiles: C#C[C@]1(COC(=O)CCCCCCCCC)O[C@@H](n2cnc3c(N)nc(F)nc32)C[C@@H]1OC(=O)CCCCCCCCC
pIC50: 8.00
//
Chem smiles: C#C[C@]1(COC(=O)CCCCCCCCCCCCCCCCCCC(=O)O)O[C@@H](n2cnc3c(N)nc(F)nc32)C[C@@H]1O
pIC50: 8.10
//
Chem smiles: C#C[C@]1(COC(=O)Cc2ccccc2)O[C@@H](n2cnc3c(N)nc(F)nc32)C[C@@H]1O
pIC50: 8.70
//
Chem smiles: C#C[C@]1(COC(=O)CCCC)O[C@@H](n2cnc3c(N)nc(F)nc32)C[C@@H]1OC(=O)CCCCCC
pIC50: 8.30
//
Chem smiles: C#C[C@]1(COC(=O)CNC(=O)CCCCCC)O[C@@H](n2cnc3c(N)nc(F)nc32)C[C@@H]1O
pIC50: 8.40
//
Chem smiles: C#C[C@]1(COC(=O)CCCC)O[C@@H](n2cnc3c(N)nc(F)nc32)C[C@@H]1OC(=O)CCCC
pIC50: 7.96
